- Test method notes: qHTS assay to identify small molecule antagonists of the retinoid acid receptor (RAR) signaling pathway - cell viability counter screen (AID 1159551); note: nearly all actives have a fitted effect of over 35% in size
- Experimental setup: C3RL4 cells viability, ATP luminescence (CellTiter-Glo), 6 h; series mostly up to 92.4 µM
Inconclusive results are not listed. Active and inactive are the calls of the source. Calls come from the whole dose curve; as a rule, active = well fitted cell-killing curve with a large enough effect in the repeat runs; inconclusive = weak or mixed curves, or effect the other way; inactive = flat fitted curve, though single readings scatter.
Select the correct class. Options are active, inactive and nothing else.

# Compound, Class assignment
data = [
    ("COc1ccccc1OCCNCC(O)COc1cccc2[nH]c3ccccc3c12 (centres undefined)", "inactive"),
    ("Brc1ccccc1-c1ccccc1", "inactive"),
    ("C=CC(=O)OCCN(CC)CC", "inactive"),
]

Can you look up the reported call for O=C(Nc1ccc(Cl)cc1)Nc1ccc(Cl)c(C(F)(F)F)c1 for me?
active

###

- Test method notes: qHTS assay to identify small molecule agonists of the vitamin D receptor (VDR) signaling pathway - cell viability counter screen (AID 743224); note: nearly all actives have a fitted effect of over 50% in size
- Experimental setup: VDR-bla HEK293T viability, CellTiter-Glo luminescence, 16 h; series mostly up to 62.6 µM
- Excerpt: U.S. Tox21 Program National Center for Advancing Translational Sciences [NCATS] NIH Chemical Genomics Center [NCGC] U.S. Environmental Protection Agency [EPA] National Institutes of Environmental Health Sciences [NIEHS] National Toxicology Program [NTP] U.S. Food and Drug Administration [FDA] Tox21 Assay Overview: The vitamin D receptor (VDR), a member of nuclear hormone receptor superfamily, plays a critical role in calcium homeostasis and bone metabolism. […]
Inconclusive results are not listed. Activity calls are given as the source filed them. The call rests on the fitted dose curve; in most records, active means well fitted cell-killing curve with a large enough effect in the repeat runs; inconclusive means weak or mixed curves, or effect the other way; inactive means no such curve, though single readings can be large or run the other way.
Log the outcome using a class from active, inactive

Record excerpt, results attached:
# Compound, Class assignment
measured = [
    ("SCCCCCCCCS", "inactive"),
    ("O=C(O)c1cccc(Cl)n1", "active"),
]

State the result this test recorded for c1ccc(Sc2ccccc2)cc1 .
active

Just curious, what result did NCCCC(O)(P(=O)(O)O)P(=O)(O)O get here?
inactive

Could you check what this test reported for COc1cc(C(=O)NS(=O)(=O)c2ccccc2C)ccc1Cc1cn(C)c2ccc(NC(=O)OC3CCCC3)cc12 ?
inactive

Can you look up the reported call for CCN(CC)CCOC(=O)C1(C2CCCCC2)CCCCC1 for me?
inactive

###

- Study system: Nuclear receptor subfamily 1 group I member 3 (Homo sapiens)
- Test method notes: qHTS assay to identify small molecule antagonists of the constitutive androstane receptor (CAR) signaling pathway (AID 1224838);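 note: HepG2 cells stably expressing hCAR with CYP2B6 luciferase reporter stimulated by CITCO; nearly all actives have a fitted effect of over 40% in size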
- Experimental setup: HepG2-CYP2B6-hCAR luciferase, CITCO-stimulated, 24 h; series mostly up to 92.4 µM
Records with an inconclusive call do not appear. Calls of active or inactive are those of the source. The call rests on the fitted dose curve; in most records, active means well fitted inhibition curve with a large enough effect in the repeat runs; inconclusive means weak or mixed curves, or effect the other way; inactive means no such curve, though single readings can be large or run the other way.
// allowed return values: active, inactive

# Compound, Class assignment
rows = [
    ("Clc1ccc(C(Cn2ccnc2)OCc2ccsc2Cl)c(Cl)c1 (centres undefined)", "inactive"),
]

Outcome? CC=O
active

Tell me the recorded outcome of this test for CC(=O)Oc1ccc(C2(c3ccc(OC(C)=O)cc3)Oc3ccccc3NC2=O)cc1 .
active

What is the recorded call for this compound in the test? CCCCCCCC(OC)OC
inactive

Name the outcome recorded for CCc1cccc(CC)c1NC(=O)C(=O)O in the assay.
inactive

Look up the recorded call for O=C(O)Cc1ccc(OCCNC[C@H](O)c2ccccc2)cc1 in this test.
inactive

Any idea what this test logged for OCCCc1cccnc1 ?
inactive

Kindly provide the recorded test outcome for the following compound: C[C@]12CC[C@H]3C(=CCc4cc(O)ccc43)[C@@H]1CCC2=O
inactive

What call does the record list for COC(=O)NCCC[Si](OC)(OC)OC ?
inactive

###

- Test method notes: qHTS assay to identify small molecule antagonists of the estrogen receptor alpha (ER-alpha) signaling pathway using the BG1 cell line (AID 743080);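 note: BG1 cells stimulated with 17beta-estradiol alongside compound; nearly all actives have a fitted effect of over 25% in size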
- Experimental setup: BG1Luc4E2 ERE-luciferase antagonist mode, luminescence
Results filed as inconclusive are left out. Activity calls are given as the source filed them. The call rests on the fitted dose curve.
Just give me one of these, please: active, inactive

Some entries whose results are on file:
# Molecule, Class assignment
measured = [
    ("O=S(=O)(O)CCCN1CCOCC1", "inactive"),
    ("CCOC(=O)[C@@](C)(N)Cc1ccc(O)c(O)c1", "inactive"),
    ("COc1cccc(CCc2ccccc2OCC(CN(C)C)OC(=O)CCC(=O)O)c1 (centres undefined)", "inactive"),
    ("CC(CN(C)C)CN1c2ccccc2CCc2ccccc21 (centres undefined)", "inactive"),
    ("O=C(Nc1ccc(Cl)cc1)Nc1ccc(Cl)c(C(F)(F)F)c1", "active"),
    ("O=C(O)c1cccc(Cl)n1", "inactive"),
]

Status in this test for CN(C)c1ccc(N=Nc2ccccc2C(=O)O)cc1 ?
inactive

How was CCCC(CC)CCCCCCCN (centres undefined) classified in this test?
inactive

Test call, this molecule: O=Nc1ccc(NO)cc1
inactive

For CCCCCCCCCCCCCC[n+]1ccccc1 , which call appears in the assay record?
active

Recorded call for COc1cc(C(C)C)c2c(c1)S(=O)(=O)N(COc1cc(=O)n3cccc(OCCN4CCCCC4)c3n1)C2=O ?
inactive

###

- Test method notes: qHTS assay to identify small molecule antagonists of the androgen receptor (AR) signaling pathway using the MDA cell line in the presence of 0.5 nM R1881 - cell viability counter screen (AID 1259242); note: nearly all actives have a fitted effect of over 45% in size
- Experimental setup: MDA-kb2 viability, CellTiter-Fluor protease fluorescence, 16 h; series mostly up to 92.4 µM
Results filed as inconclusive are left out. The source made the active and inactive calls. Calls come from the whole dose curve; as a rule, active = well fitted cell-killing curve with a large enough effect in the repeat runs; inconclusive = weak or mixed curves, or effect the other way; inactive = flat fitted curve, though single readings scatter.
Metric: outcome

# Compound, Measured result
measured = [
    ("CCCCCCC(C)OC(=O)COc1nc(F)c(Cl)c(N)c1Cl (stereo not drawn)", "inactive"),
    ("Cc1cn[nH]c1", "inactive"),
    ("CCCC(C)CCC(C)=O (stereo not drawn)", "inactive"),
]

###

- Test method notes: qHTS assay to identify small molecule antagonists of the constitutive androstane receptor (CAR) signaling pathway - cell viability counter screen (AID 1224837); note: nearly all actives have a fitted effect of over 45% in size
- Experimental setup: HepG2-CYP2B6-hCAR viability, CellTiter-Fluor, 23 h, co-treated with 50 nM CITCO; series mostly up to 92.4 µM
Results filed as inconclusive are left out. Active and inactive are the calls of the source. Calls come from the whole dose curve; as a rule, active = well fitted cell-killing curve with a large enough effect in the repeat runs; inconclusive = weak or mixed curves, or effect the other way; inactive = flat fitted curve, though single readings scatter.
Your response should consist of one outcome taken from 1 = active, 0 = inactive

# Molecule, Class assignment
measured = [
    ("CC(C)(c1cc(Br)c(O)c(Br)c1)c1cc(Br)c(O)c(Br)c1", 0),
    ("CCCCCCCCCCCC(=O)N(CC)CC", 0),
    ("Clc1cc(Cl)c(-c2c(Cl)c(Cl)cc(Cl)c2Cl)cc1Cl", 0),
    ("CCCCCCCCCCc1ccccc1", 0),
]

Returns: the outcome recorded for CC(=O)OC1CCCCC1 in this assay.
0

Record lookup: outcome of this test for CC(C)=CC1CC(C)CCO1 (stereo not drawn) ?
0

Would you mind telling me which call this test gave CCN(CC)CCCN(c1ccccc1)C1Cc2ccccc2C1 ?
0

Call for entry CCCCCCCCCCCCCC[n+]1ccccc1 :
1

How was Cc1ccc2ccc3cccc4ccc1c2c34 classified in this test?
0

###

- Study system: Retinoic acid receptor RXR-alpha (Homo sapiens)
- Test method notes: qHTS assay to identify small molecule agonists of the RXR signaling pathway (AID 1159527); note: nearly all actives have a fitted effect of over 35% in size
- Experimental setup: HEK293T RXRa-UAS-bla, beta-lactamase ratio, 16 h; series mostly up to 76.8 µM
- Source text: U.S. Tox21 Program National Center for Advancing Translational Sciences [NCATS] NIH Chemical Genomics Center [NCGC] U.S. Environmental Protection Agency [EPA] National Institutes of Environmental Health Sciences [NIEHS] National Toxicology Program [NTP] U.S. Food and Drug Administration [FDA] Tox21 Assay Overview: The Retinoid X receptor (RXR), a nuclear hormone receptor expressed in liver, spleen, placenta, epidermis, central nervous system. […]
Inconclusive results are not listed. Activity calls are given as the source filed them. Calls come from the whole dose curve.
Return exactly one item of active, inactive

Example entries and their recorded answers appear below.
# Molecule smiles, Class assignment
rows = [
    ("ClC/C=C\\CCl", "inactive"),
    ("CC1=C(/C=C/C(C)=C/C=C/C(C)=C\\C=O)C(C)(C)CCC1", "active"),
    ("CCCC(=O)OCC(COC(=O)CCC)OC(=O)CCC", "inactive"),
    ("CCCCCCCOC(=O)c1ccc(O)cc1", "inactive"),
]

Outcome? Oc1cc2ccccc2cc1O
inactive

###

- Test method notes: qHTS assay to identify small molecule agonists of H2AX - cell viability counter screen (AID 1224847); note: nearly all actives have a fitted effect of over 30% in size
- Experimental setup: CHO-K1 viability, CellTiter-Glo luminescence, 3 h; series mostly up to 154 µM
Records with an inconclusive call do not appear. Calls of active or inactive are those of the source. Calls follow the shape of the full dose curve.
Lab note: assign the record to one of active, inactive

# Molecule smiles, Class assignment
measured = [
    ("CCCCCCCC/C=C\\CCCCCCCC(=O)OCCOC(=O)CCCCCCC/C=C\\CCCCCCCC", "inactive"),
    ("COc1ccc(-n2nc(CCC(=O)N(C)O)cc2-c2ccc(Cl)cc2)cc1", "inactive"),
    ("CC(C)(c1cc(Br)c(O)c(Br)c1)c1cc(Br)c(O)c(Br)c1", "active"),
]

Consider now this further compound.
Look up the recorded call for CN(C)CCCN1c2ccccc2CCc2ccccc21 in this test.
inactive
